Molecular target: Human orexin receptor type 2 (Homo sapiens)
Assay: Test Example 1: agonist activity for orexin receptor type 2 (aequorin luminescence, intracellular calcium mobilization)
Conditions: compound 10 μm; CHO cells transiently expressing human orexin receptor type 2 and apoaequorin; relative percentage of luminescence for the luminescence (100%) of Orexin A (100 μM)
Let's look at some molecules and their measured Agonist Activity (%).
Numbers only here, please. The scale is %.

Cc1ccc(C2CCN(C(=O)Nc3c(F)cccc3N3CCN(C(C)C)CC3)CC2)nc1 [Example 46] = 49
CC(C)N1CCN(c2cccc(F)c2NC(=O)N2CCC(C)(c3noc(C4CC(F)(F)C4)n3)CC2)CC1 [Example 75] = 131
CC1(c2cc(C3CC3)on2)CCN(C(=O)Nc2c(F)cccc2-c2ccc(C(F)(F)F)nc2)CC1.Cl [Example 71] = 88
Cc1ccc(C2CCN(C(=O)Nc3ccccc3C3CCN(C(C)C)CC3)CC2)cc1.Cl [Example 31] = 164

Form field - read-out: Agonist Activity (%); system: Human orexin receptor type 2 (Homo sapiens); submitted item: CC(C)N1CCN(c2cccc(F)c2NC(=O)N2CCC(C)(C3CCCC3)CC2)CC1 [Example 91]
195

// query: CC(C)N1CCC(c2cccc(F)c2NC(=O)N2CCC(C)(c3nc4ccccc4o3)CC2)CC1 [Example 49]
196

// query: Cc1ccc(C2CCN(C(=O)Nc3c(OC(C)C)cccc3C3CCN(C(C)C)CC3)CC2)cc1 [Example 129]
138

// query: CC(C)c1noc(C2(C)CCN(C(=O)Nc3ccccc3N3CCN(C(C)C)CC3)CC2)n1.Cl [Example 163]
110

// query: COCC(C)N1CCN(c2ccccc2NC(=O)N2CCC(c3ccc(C)cc3)CC2)CC1 (stereo not shown) [Example 126]
139

// query: Cc1ccc(C2CCN(C(=O)Nc3c(F)cccc3C3=CCN(C(CF)CF)CC3)CC2)cc1 [Example 136]
105

// query: CC1(c2noc(C3CC3)n2)CCN(C(=O)Nc2c(F)cccc2C2=CCOCC2)CC1 [Example 56]
44

// query: CC(C)N1CCN(c2cccc(Cl)c2NC(=O)N2CCC(C)(c3noc([C@@H]4C[C@@H]4C)n3)CC2)CC1 (racemic) [Example 104]
180

###

Biological target: Human orexin receptor type 2 (Homo sapiens, UniProt O43614)
Sequence (O43614 whole entry): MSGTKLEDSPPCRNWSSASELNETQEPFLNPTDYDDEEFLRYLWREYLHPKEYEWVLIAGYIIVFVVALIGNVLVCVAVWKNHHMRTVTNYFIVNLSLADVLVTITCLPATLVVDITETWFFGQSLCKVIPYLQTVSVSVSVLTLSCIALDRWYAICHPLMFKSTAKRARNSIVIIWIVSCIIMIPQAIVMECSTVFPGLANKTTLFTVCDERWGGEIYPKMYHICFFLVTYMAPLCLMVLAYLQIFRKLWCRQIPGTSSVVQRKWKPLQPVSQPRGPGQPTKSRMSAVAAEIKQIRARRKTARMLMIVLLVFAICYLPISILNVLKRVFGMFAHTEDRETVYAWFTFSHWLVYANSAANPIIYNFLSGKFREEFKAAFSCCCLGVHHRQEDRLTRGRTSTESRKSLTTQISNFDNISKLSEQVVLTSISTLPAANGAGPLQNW
Test: Test Example 1: agonist activity for orexin receptor type 2 (aequorin luminescence, intracellular calcium mobilization)
Conditions: compound 10 μm; CHO cells transiently expressing human orexin receptor type 2 and apoaequorin; relative percentage of luminescence for the luminescence (100%) of Orexin A (100 μM)
measuredQuantity: Agonist Activity (%)
Numbers only here, please. The scale is %.

Cc1ccc(C2CCN(C(=O)Nc3c(Cl)cccc3N3CCN(C(C)C)CC3)CC2)cc1 [Example 35] = 163
CC(C)N1CCC(c2cccc(F)c2NC(=O)N2CCC(C)(c3noc(C4CC4)n3)CC2)CC1 [Example 43] = 135

Look up Agonist Activity (%) for this compound: CC(C)N1CCN(c2ccccc2NC(=O)N2CCC(c3ccccc3)CC2)CC1 [Example 7]
154

// query: CCc1nc(C2(F)CCN(C(=O)Nc3c(Cl)cccc3N3CCN(C(C)C)CC3)CC2)no1 [Example 95]
178

// query: CC(C)N1CCN(c2cccc(F)c2NC(=O)N2CCC(c3ccccn3)CC2)CC1 [Example 36]
123

// query: CC(C)N1CCC(Oc2cccc(Cl)c2NC(=O)N2CCC(C)(c3noc(C4CC4)n3)CC2)C1 (racemic) [Example 110]
148

// query: CC(C)c1nc(C2(C)CCN(C(=O)Nc3ccccc3N3CCN(C(C)C)CC3)CC2)no1 [Example 19]
133

// query: CC(C)N1CCN(c2cccc(Cl)c2NC(=O)N2CCC(C)(c3noc([C@@H]4C[C@@H]4C)n3)CC2)CC1 [Example 118]
149

// query: CCc1nc(C2(C)CCN(C(=O)Nc3c(Cl)cccc3N3CCN(C(C)C)CC3)CC2)no1 [Example 83]
146

// query: CC(C)N1C2CCC1CN(c1cccc(F)c1NC(=O)N1CCC(C)(c3noc(C4CC4)n3)CC1)C2 [Example 155]
55

// query: CC1(c2noc(C3CC3)n2)CCN(C(=O)Nc2c(Cl)cccc2N2CCN(C3CC3)CC2)CC1 [Example 113]
157

// query: CC(C)N1CCN(c2cccc(F)c2NC(=O)N2CCC(c3cc(C4CC4)on3)CC2)CC1 [Example 52]
155

// query: COc1cccc(C2CCN(C(C)C)CC2)c1NC(=O)N1CCC(c2ccc(C)cc2)CC1 [Example 48]
146
